biological target: Protein deacetylase HDAC6 (Homo sapiens) (UniProt Q9UBN7); conditions: at 10 µM
Sequence (Q9UBN7 whole entry): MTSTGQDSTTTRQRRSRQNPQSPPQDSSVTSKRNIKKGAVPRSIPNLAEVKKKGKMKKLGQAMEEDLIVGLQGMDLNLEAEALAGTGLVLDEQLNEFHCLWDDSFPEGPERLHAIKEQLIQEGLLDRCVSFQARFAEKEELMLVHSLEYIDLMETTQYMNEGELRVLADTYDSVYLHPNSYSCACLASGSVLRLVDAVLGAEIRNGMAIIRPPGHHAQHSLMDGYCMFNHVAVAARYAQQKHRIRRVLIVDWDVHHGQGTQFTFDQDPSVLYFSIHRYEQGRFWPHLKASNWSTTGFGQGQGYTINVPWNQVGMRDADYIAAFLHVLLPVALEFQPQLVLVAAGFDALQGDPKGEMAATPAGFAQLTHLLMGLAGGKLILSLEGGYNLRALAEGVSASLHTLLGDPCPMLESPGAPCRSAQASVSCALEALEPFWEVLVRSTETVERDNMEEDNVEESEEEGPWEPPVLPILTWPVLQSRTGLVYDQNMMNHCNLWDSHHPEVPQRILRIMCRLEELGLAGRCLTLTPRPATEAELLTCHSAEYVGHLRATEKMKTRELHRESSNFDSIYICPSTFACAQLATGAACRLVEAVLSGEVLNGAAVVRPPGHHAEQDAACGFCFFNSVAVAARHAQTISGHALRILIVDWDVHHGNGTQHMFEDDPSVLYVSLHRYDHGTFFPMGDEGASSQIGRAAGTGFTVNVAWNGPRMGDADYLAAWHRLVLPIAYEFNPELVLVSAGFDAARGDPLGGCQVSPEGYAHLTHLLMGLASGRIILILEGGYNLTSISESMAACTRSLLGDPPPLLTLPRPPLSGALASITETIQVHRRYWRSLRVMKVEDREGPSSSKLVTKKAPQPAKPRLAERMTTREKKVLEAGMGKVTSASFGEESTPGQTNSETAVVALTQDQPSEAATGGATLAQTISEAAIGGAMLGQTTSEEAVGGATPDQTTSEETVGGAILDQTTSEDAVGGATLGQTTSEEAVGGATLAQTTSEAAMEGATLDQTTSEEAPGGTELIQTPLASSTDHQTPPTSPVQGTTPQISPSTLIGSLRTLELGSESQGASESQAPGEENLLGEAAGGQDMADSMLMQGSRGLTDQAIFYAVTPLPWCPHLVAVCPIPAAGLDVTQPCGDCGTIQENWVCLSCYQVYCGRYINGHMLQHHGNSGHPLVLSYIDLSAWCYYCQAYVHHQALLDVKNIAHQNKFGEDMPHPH
Hit rate of the full screen: of about 5,600 compounds, about 390 (7%) showed an effect of 50% or more. The sample holds strong results, similar compounds and a random draw of the others, so the mix is not that of the screen.
Recorded inhibition by entry
Use % as the unit, but write only the number.

// below: answered compounds
INSERT INTO measurements (compound, measured_result) VALUES
  ('C=CCOc1ccc(CC(=O)O)cc1Cl', 9.47),
  ('Cn1cc(C2=C(c3ccc(Cl)cc3Cl)C(=O)NC2=O)c2ccccc21', -5.95),
  ('CC1(C)CC(Oc2ccc(-c3ccc(-c4cn[nH]c4)cc3O)nn2)CC(C)(C)N1', 8.09),
  ('O=C(NCc1ccc2c(c1)OCO2)c1c(Cl)cccc1Cl', 76.1),
  ('COc1ccc2cc3[n+](cc2c1OC)CCc1cc2c(cc1-3)OCO2', -6.81),
  ('OC[C@H]1O[C@@H](Oc2cc3c(O)cc(O)cc3[o+]c2-c2ccc(O)c(O)c2)[C@H](O)[C@@H](O)[C@@H]1O', 27.8);

Query string: Can you share its inhibition? I mean this compound: CCCN[C@H]1CCc2nc(N)sc2C1
Result string: 14.3

Query string: What about this compound? Cn1cc(/C=C2/C(=O)Nc3cccnc32)c2ccccc21
Result string: 99.5

Query string: Further, for O=P(O)(O)OC[C@H]1OC(O)(COP(=O)(O)O)[C@@H](O)[C@@H]1O (stereo not given in full) ?
Result string: 8.76

Query string: And what about the compound Cc1ccc2c(c1CCC(=O)O)CC[C@@H](NS(=O)(=O)c1ccc(Cl)cc1)C2 ?
Result string: -3.38
